Cited source for all entries: the M2OR odorant receptor database

molecular target: UniProt Q8VGX8; details: stereoisomer not certain
Sequence (Q8VGX8 as listed by the source): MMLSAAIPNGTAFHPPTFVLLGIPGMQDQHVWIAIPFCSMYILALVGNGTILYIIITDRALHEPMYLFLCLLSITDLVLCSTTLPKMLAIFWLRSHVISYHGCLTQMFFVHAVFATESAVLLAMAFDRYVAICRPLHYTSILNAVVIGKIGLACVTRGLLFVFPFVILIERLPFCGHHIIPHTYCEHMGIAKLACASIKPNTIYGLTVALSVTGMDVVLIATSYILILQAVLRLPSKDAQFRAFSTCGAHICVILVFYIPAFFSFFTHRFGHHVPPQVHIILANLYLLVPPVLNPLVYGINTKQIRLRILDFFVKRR
// allowed return values: active, inactive

The examples below pair each entry with its known result.
CCCCOC(=O)C(C)OC(=O)CCC (stereo not given); inactive
CCCCCCCCCO; inactive

Prompt: Dear all, I need the recorded test outcome for O=c1ccc2ccccc2o1 , thank you.
Response: inactive

Prompt: Dear all, I need the recorded test outcome for CCCC(=O)C(C)=O , thank you.
Response: inactive

---

test system: O52N2 S249A H264R; conditions: stereoisomer not certain
Measurement Label: odorant receptor agonist call

The cases that follow already have their odorant receptor agonist call on record.
CC1=NC(C)C(C)S1 (configuration not stated); inactive
Cc1cnc(C)c(C)n1; inactive
CCC1OC(=O)C(O)=C1C (configuration not stated); inactive
CCC1OC(C)=C(O)C1=O (configuration not stated); inactive
CCCCCCC=CCCC=O; inactive

Would you be so kind as to report odorant receptor agonist call for each listed record?
1. CCCC(S)CCOC(C)=O (configuration not stated)
2. CC1=C(O)C(=O)C(C)O1 (configuration not stated)

Response:
inactive
inactive

---

Target: OR10S1 (Homo sapiens) (UniProt Q8NGN2)
Sequence (whole entry): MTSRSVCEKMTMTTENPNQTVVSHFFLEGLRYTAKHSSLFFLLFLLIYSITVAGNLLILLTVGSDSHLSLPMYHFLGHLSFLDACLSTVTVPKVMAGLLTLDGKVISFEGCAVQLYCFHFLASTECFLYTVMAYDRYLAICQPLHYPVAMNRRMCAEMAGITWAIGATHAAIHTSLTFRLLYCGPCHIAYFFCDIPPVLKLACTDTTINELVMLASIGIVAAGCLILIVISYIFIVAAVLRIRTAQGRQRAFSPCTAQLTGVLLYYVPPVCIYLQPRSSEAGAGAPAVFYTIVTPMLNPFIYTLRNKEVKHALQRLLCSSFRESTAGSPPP
Conditions: stereoisomer not certain
// allowed return values: active, inactive

The examples below pair each entry with its known result.
CC1=C(O)C(=O)OC1C (stereo unspecified); inactive
CCCCCCCCCCCC(=O)O; inactive
CC(CO)CS (stereo unspecified); inactive
CCCCCCCC(=O)OCC; inactive
CCCCCCCCCCCC(=O)OC; inactive

Prompt: Dear all, I need the recorded test outcome for CC(O)C(=O)[O-].[H+] (stereo unspecified) , thank you.
Response: inactive

Prompt: Dear all, I need the recorded test outcome for CCCCCCCCCCCCCCCC(=O)OC , thank you.
Response: inactive

Prompt: Dear all, I need the recorded test outcome for CCC(C)CO (stereo unspecified) , thank you.
Response: inactive

Prompt: Dear all, I need the recorded test outcome for CCCCCCCCCCCCO , thank you.
Response: active

Prompt: Dear all, I need the recorded test outcome for CC(C)=CCCC(C)=CCCC(C)=CCO , thank you.
Response: inactive

Prompt: Dear all, I need the recorded test outcome for CCCCOCC(C)O (stereo unspecified) , thank you.
Response: inactive

---

Tested on: A0A6P3DZI2
Sequence (whole entry): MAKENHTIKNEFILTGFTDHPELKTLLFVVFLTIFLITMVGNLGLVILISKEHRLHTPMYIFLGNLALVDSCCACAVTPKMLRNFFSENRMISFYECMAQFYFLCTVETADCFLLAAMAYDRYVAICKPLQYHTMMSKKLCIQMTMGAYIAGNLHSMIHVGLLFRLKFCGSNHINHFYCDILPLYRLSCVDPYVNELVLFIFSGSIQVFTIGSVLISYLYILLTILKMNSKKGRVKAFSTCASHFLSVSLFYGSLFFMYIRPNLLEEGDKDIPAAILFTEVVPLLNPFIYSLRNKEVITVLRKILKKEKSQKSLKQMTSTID
Conditions: stereoisomer not certain
// allowed return values: active, inactive

The examples below pair each entry with its known result.
CCC(C)c1nccnc1OC (configuration not stated); inactive
Cc1cnccn1; inactive
CC(=O)c1cnccn1; inactive
Cc1cnc(C)cn1; inactive
C=Cc1cnccn1; inactive
CCc1nccnc1C(C)=O; inactive
CCc1nccnc1OC; inactive
COc1cnccn1; inactive
COc1nccnc1CC(C)C; inactive
Cc1cnc(C)c(C)n1; active

Prompt: Dear all, I need the recorded test outcome for CCc1nccnc1C , thank you.
Response: inactive

Prompt: Dear all, I need the recorded test outcome for CC1=NC(C)C(C)S1 (configuration not stated) , thank you.
Response: active
